System: HepG2
ASSAY NOTES: drug sensitivity score (DSS) for viability; higher = more toxic; extreme values may be limits of the assay
TEST CONDITIONS: 72 h
VALUE TYPE: drug sensitivity score

Param item = CCN(CC)CCOCCOC(=O)C(CC)(CC)c1ccccc1 [oxelaidin] ; retrieve measured drug sensitivity score.
0.3

Param item = `CC(C)[C@H](NS(=O)(=O)c1ccc(-c2ccc(Br)cc2)cc1)C(=O)O` ; retrieve measured drug sensitivity score.
0

Param item = CC(=O)c1cc2c(o1)C(=O)c1ccccc1C2=O [napabucasin] ; retrieve measured drug sensitivity score.
18.4

Param item = O=c1[nH]c2ccccc2c(=O)n1CCCN1CCN(c2ccccc2)CC1 [pelanserin] ; retrieve measured drug sensitivity score.
0

Param item = C/C(=C\c1ccc(C(=O)O)cc1)c1ccc2c(c1)C(C)(C)CCC2(C)C [TTNPB] ; retrieve measured drug sensitivity score.
0

Param item = C=C1C[C@]23C[C@@]1(O)CC[C@H]2[C@@]12C=C[C@H](O)[C@@](C)(C(=O)O1)[C@H]2[C@@H]3C(=O)O [MD-920] ; retrieve measured drug sensitivity score.
0

Param item = Oc1cc2c(cc1O)[C@H](Cc1cccc3ccccc13)NCC2 [CKD-712] ; retrieve measured drug sensitivity score.
0.3

Param item = CC/C(=C(/CC)c1ccc(O)cc1)c1ccc(O)cc1 [diethylstilbestrol] ; retrieve measured drug sensitivity score.
0

Param item = `Cc1cc(N2CCOCC2)cc2[nH]c(-c3c(NC[C@@H](O)c4cccc(Cl)c4)cc[nH]c3=O)nc12` ; retrieve measured drug sensitivity score.
10.1

Param item = `Cc1cccc(NC(=O)c2ccc(C(F)(F)F)cc2C(=O)O)n1` ; retrieve measured drug sensitivity score.
0

Param item = C=C1CC[C@@H]2[C@](C)(CO)[C@H](O)CC[C@@]2(C)[C@@H]1C/C=C1/C(=O)OC[C@H]1O [andrographolide] ; retrieve measured drug sensitivity score.
1.4

* * *

Kindly state cell viability for each of the entries shown.
Tested on: Caco-2
ASSAY NOTES: cell viability relative to DMSO; higher = less toxic
TEST CONDITIONS: 72 h; 100 nM

Param item = `O=C(O)Cc1cccc(OCCCN(Cc2cccc(C(F)(F)F)c2Cl)CC(c2ccccc2)c2ccccc2)c1` ; retrieve measured cell viability.
97.8%

Param item = `CC/C(=C(/CC)c1ccc(O)cc1)c1ccc(O)cc1` ; retrieve measured cell viability.
107%

Param item = `CN/C(=N\CCSCc1nc[nH]c1C)NC#N` ; retrieve measured cell viability.
98.7%

Param item = `O=C(O)c1ccccc1C(=O)Nc1ccc(S(=O)(=O)Nc2nccs2)cc1` ; retrieve measured cell viability.
94.1%

Param item = O=C1CC2(CCCC2)CC(=O)N1CCCCNC[C@H]1COc2ccccc2O1 (racemic) ; retrieve measured cell viability.
93.8%

Param item = CC(CNS(=O)(=O)C(C)C)c1ccc(-c2ccc(C#N)cc2)cc1 (stereo unspecified) ; retrieve measured cell viability.
97.7%

* * *

Kindly state cell viability for each of the entries shown.
System: Caco-2
ASSAY NOTES: cell viability relative to DMSO; higher = less toxic
TEST CONDITIONS: 72 h; 10 nM
Number only, in %; omit the unit.

Look up cell viability with Caco-2 for this compound: `CC[C@H](C)[C@H](NC(=O)[C@H](Cc1ccc(O)cc1)NC(=O)[C@@H](NC(=O)[C@H](CCCNC(=N)N)NC(=O)[C@@H](N)CC(=O)O)C(C)C)C(=O)N[C@@H](Cc1c[nH]cn1)C(=O)N1CCC[C@H]1C(=O)O`
110

Look up cell viability with Caco-2 for this compound: `NS(=O)(=O)C#Cc1ccccc1`
100

Look up cell viability with Caco-2 for this compound: Cc1c(C)c2c(c(C)c1O)CCC(C)(C(=O)O)O2 (stereo unspecified)
103

Look up cell viability with Caco-2 for this compound: `c1ccc(-c2n[nH]cc2-c2ccnc3ccccc23)nc1`
93.1

Look up cell viability with Caco-2 for this compound: `COc1cc2c(cc1Cc1cccc(Cl)c1F)c(=O)c(C(=O)O)cn2[C@H](CO)C(C)C`
91.8

Look up cell viability with Caco-2 for this compound: `O=S1(=O)N[C@H]2CCCN2c2ccccc21`
96.7

Look up cell viability with Caco-2 for this compound: `Cc1ccc(S(=O)(=O)c2ccc([N+](=O)[O-])o2)cc1`
96.6

Look up cell viability with Caco-2 for this compound: `CC(=O)[C@H]1CC[C@H]2[C@@H]3C[C@H](C)C4=CC(=O)CC[C@]4(C)[C@H]3[C@@H](O)C[C@]12C`
97.5

Look up cell viability with Caco-2 for this compound: `Cc1cccc(COc2cccc(/C=C3\C(=O)NN(c4ccccc4)C3=O)c2)c1`
97.9

Look up cell viability with Caco-2 for this compound: `Cc1ccc2c(=O)c3cccc(CC(=O)O)c3oc2c1C`
98.6

Look up cell viability with Caco-2 for this compound: `NC(N)=Nc1nc(CSCC/C(N)=N/S(N)(=O)=O)cs1`
106

* * *

Test system: HepG2
ASSAY NOTES: cell viability relative to DMSO; higher = less toxic
TEST CONDITIONS: 72 h; 1 nM
Kindly state cell viability for each of the entries shown.
Number only, in %; omit the unit.

Look up cell viability with HepG2 for this compound: Cc1cc(=O)n(-c2ccccc2)[nH]1 [N-demethylantipyrine]
94.1

Look up cell viability with HepG2 for this compound: `O=C(O)C(Cc1ccccc1[N+](=O)[O-])=NNc1nc(-c2ccc(Cl)c(Cl)c2)cs1`
101

Look up cell viability with HepG2 for this compound: `COc1ccc2c(c1)/C(=C/c1cnc[nH]1)C(=O)N2`
105

Look up cell viability with HepG2 for this compound: `O=C1c2c(O)cc(O)cc2O[C@H](c2ccc(O)c(O)c2)[C@H]1O`
101

Look up cell viability with HepG2 for this compound: `NC(=O)c1ccc(-c2nc(-c3ccccn3)c(-c3ccc4c(c3)OCO4)[nH]2)cc1`
107

Look up cell viability with HepG2 for this compound: CCCCNC(=O)[C@@H]1Cc2ccccc2N1C(=O)[C@@H](N)CC [butabindide]
106

Look up cell viability with HepG2 for this compound: `NC(=O)Nc1sc(-c2ccc(F)cc2)cc1C(N)=O`
99.5

Look up cell viability with HepG2 for this compound: `Nc1nc(=O)n([C@H]2C[C@H](O)[C@@H](CO)O2)cc1F`
117

Look up cell viability with HepG2 for this compound: NC(=O)OCC(COC(N)=O)c1ccccc1 [felbamate]
96.5

Look up cell viability with HepG2 for this compound: `COc1ccc(C(=O)Nc2sc3c(c2C(N)=O)CCCC3)cc1OC`
94.4

Look up cell viability with HepG2 for this compound: `Cn1c(C#N)ccc1-c1ccc2c(c1)C(C)(C)OC(=S)N2`
106

Look up cell viability with HepG2 for this compound: `OCC[N+]12CN3CN(CN(C3)C1)C2`
97.6

Look up cell viability with HepG2 for this compound: `Cc1ncc(CN2CC=C(c3ccccc3)CC2)c(N)n1`
91.8

Look up cell viability with HepG2 for this compound: `CN[C@H](CC(=O)O)C(=O)O`
99.9

Look up cell viability with HepG2 for this compound: O=C(COc1ccc(Cl)cc1)N1CCN(Cc2ccc3c(c2)OCO3)CC1 [fipexide]
83.9

Look up cell viability with HepG2 for this compound: `COc1ccc(C(=O)c2ccccc2)c(O)c1`
112

Look up cell viability with HepG2 for this compound: `C[C@H]1N=C(N(C)C)N=C(N)N1`
96.4

* * *

Tested on: Caco-2
ASSAY NOTES: cell viability relative to DMSO; higher = less toxic
TEST CONDITIONS: 72 h; 1 nM
Where a name gives a salt, the structure may show the parent alone.
VALUE TYPE: cell viability (%)
Number only, in %; omit the unit.

Param item = `Oc1ccc([C@@H]2Oc3ccc(O)cc3[C@@H]3CCC[C@@H]32)cc1` ; retrieve measured cell viability.
95.4

Param item = COc1cccc2c1C(=O)c1c(O)c3c(c(O)c1C2=O)C[C@@](O)(C(=O)CO)C[C@@H]3O[C@H]1C[C@H](N)[C@@H](O)[C@H](C)O1 [Epirubicin Hydrochloride] ; retrieve measured cell viability.
95.8

Param item = `Cc1ccc(-c2cc(C(F)(F)F)nn2-c2ccc(S(N)(=O)=O)cc2)cc1` ; retrieve measured cell viability.
99.1

Param item = `c1ccc2c(-c3cnn4cc(-c5ccc(N6CCNCC6)cc5)cnc34)ccnc2c1` ; retrieve measured cell viability.
107

* * *

Tested on: Vero E6
ASSAY NOTES: cell viability relative to DMSO; higher = less toxic
TEST CONDITIONS: 72 h; 1000 nM
VALUE TYPE: cell viability (%)
Number only, in %; omit the unit.

Param item = `c1ccc2c(-c3cnn4cc(-c5ccc(N6CCNCC6)cc5)cnc34)ccnc2c1` ; retrieve measured cell viability.
71.5

Param item = `Cn1ncc2c(N3CCOCC3)nc(-c3cccc(O)c3)nc21` ; retrieve measured cell viability.
78

Param item = Cc1ncc(COP(=O)([O-])[O-])c(CN(CCN(CC(=O)O)Cc2c(COP(=O)([O-])O)cnc(C)c2O)CC(=O)O)c1O.[Mn].[Na+].[Na+].[Na+] [Mangafodipir (trisodium)] ; retrieve measured cell viability.
97

Source listed as the supplement of paper PMC13380429.
